Tested on: BDF1 mice, Friend leukemia sc, tumor weight T/C
Test: NCI In Vivo Anticancer Drug Screen. Data for tumor model Friend Virus Leukemia (Solid) (subcutaneous) in B6D2F1 (BDF1) mice
Experimental Setup: endpoint: mean tumor weight; dose: 62.0 mg/kg/injection; schedule: Q01DX011 (ip); vehicle: carboxymethylcellulose (CMC); higher = larger tumour
Records with an inconclusive call do not appear.
Measured Attribute: T/C

C[N+](C)(C)c1ncnc2nc[nH]c12 ... 43 % of control
O=C(Nc1ccc(C2=NCCN2)cc1)c1cc(Cl)cc(C(=O)Nc2ccc(C3=NCCN3)cc2)c1 ... 75 % of control
OCCc1ccccc1 ... 83 % of control
Nc1ccc(OC(=O)Oc2ccc(N)cc2)cc1 ... 68 % of control
OCC1OC(n2cnc3c(=S)nc[nH]c32)C(O)C1O (stereo not drawn) ... 2 % of control
OCC1OC(n2cnc3c(Cl)ncnc32)C(O)C1O (stereo not drawn) ... 93 % of control
O=C(O)C(=O)c1ccc(-c2ccccc2)cc1 ... 67 % of control
CCOc1ccc2nc(S(N)(=O)=O)sc2c1 ... 77 % of control

====

# Lookup of reported T/C keyed by entry
Test system: BDF1 mice, Friend leukemia sc, tumor weight T/C
Test: NCI In Vivo Anticancer Drug Screen. Data for tumor model Friend Virus Leukemia (Solid) (subcutaneous) in B6D2F1 (BDF1) mice
Experimental Setup: endpoint: mean tumor weight; dose: 0.75 mg/kg/injection; schedule: Q01DX011 (ip); vehicle: carboxymethylcellulose (CMC); higher = larger tumour
Records with an inconclusive call do not appear.
Measured Attribute: T/C

S=c1nc[nH]c2c1ncn2C1CCCO1 (stereo unspecified) ... 79 % of control
Nc1nc(SCc2ccccc2Cl)c2ncn(C3OC(CO)C(O)C3O)c2n1 (stereo unspecified) ... 70 % of control
NCCCC(NC(=O)CCCCCCCCN=C(N)N)C(O)CCCCCCCCN=C(N)N (stereo unspecified) ... 82 % of control
Cc1nc(N)nc(N)c1-c1ccc(Cl)c(Cl)c1 ... 96 % of control
N=[N+]=CC(=O)OCC(N)C(=O)O (stereo unspecified) ... 37 % of control
O=C(Nc1ccc(C2=NCCCN2)cc1)c1ccc(C(=O)Nc2ccc(C3=NCCCN3)cc2)cc1 ... 121 % of control

====

Test system: BDF1 mice, Friend leukemia sc, tumor weight T/C
Test: NCI In Vivo Anticancer Drug Screen. Data for tumor model Friend Virus Leukemia (Solid) (subcutaneous) in B6D2F1 (BDF1) mice
Experimental Setup: endpoint: mean tumor weight; dose: 2.0 mg/kg/injection; schedule: Q01DX011 (ip); vehicle: carboxymethylcellulose (CMC); higher = larger tumour
Inconclusive results are not listed.
# Lookup of reported T/C keyed by entry
Measured Attribute: T/C

CCC[CH2][Sn]([CH2]CCC)([CH2]CCC)[O]C(=O)CC[S][Sn]([CH2]CCC)([CH2]CCC)[CH2]CCC ... 108 % of control
CC(CCC(C)OS(C)(=O)=O)OS(C)(=O)=O (stereo not given) ... 103 % of control
NC(Cc1ccc(N(CCCl)CCCl)cc1)C(=O)O (stereo not given) ... 60 % of control
COc1ccc(Nc2ccnc3cc(Cl)ccc23)cc1CN(CCCl)CCCl ... 76 % of control
Nc1nc(SCc2ccccc2)c2[nH]cnc2n1 ... 84 % of control
Cc1nc(N2CC2)nc(N2CC2)c1[N+](=O)[O-] ... 70 % of control
NC(=O)N(CCCl)N=O ... 101 % of control
c1ccc(CSc2ncnc3nc[nH]c23)nc1 ... 88 % of control
N#C[C@@H]1C2C=CC(CC2)[C@H]1C#N ... 83 % of control
CCCCCCCCCCCCn1c(C)nc2ccccc21 ... 75 % of control
